Reference for the values: ChEMBL document CHEMBL4400552

# study_system: UniProt:P27338
# Sequence (P27338 whole entry): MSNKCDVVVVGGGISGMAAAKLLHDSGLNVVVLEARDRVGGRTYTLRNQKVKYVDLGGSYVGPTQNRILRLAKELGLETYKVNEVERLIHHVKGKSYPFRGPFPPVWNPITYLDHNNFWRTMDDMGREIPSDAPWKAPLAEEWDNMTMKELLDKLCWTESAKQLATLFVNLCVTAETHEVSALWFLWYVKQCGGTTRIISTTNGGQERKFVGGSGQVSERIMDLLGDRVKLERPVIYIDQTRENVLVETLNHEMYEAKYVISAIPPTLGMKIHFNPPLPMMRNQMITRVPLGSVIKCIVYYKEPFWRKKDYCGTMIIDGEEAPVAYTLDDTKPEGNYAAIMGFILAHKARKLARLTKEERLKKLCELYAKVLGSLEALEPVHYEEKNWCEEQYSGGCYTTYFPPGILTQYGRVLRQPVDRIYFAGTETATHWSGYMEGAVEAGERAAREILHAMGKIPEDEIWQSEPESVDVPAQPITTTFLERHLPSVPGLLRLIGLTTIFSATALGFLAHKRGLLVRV
# protocol: Inhibition of human recombinant MAO-B expressed in insect cells at 1 uM using p-tyramine as substrate preincubated for 30 mins followed by substrate addition measured for 15 mins by resorufin dye-based fluorescence assay relative to control
# condition_notes: 0.25 h, read-out: INH
metric: inhibition at 1 µM (%)
Give the quantity in %, number only.

Would you please look over these solved cases?
# compound_structure_string, study_system, units_label, inhibition at 1 µM
measured = [
    ("CCn1c(=O)[nH]c2ccc(OCc3cccc(C(F)(F)F)c3)cc21", "UniProt:P27338", "%", 12.5),
    ("O=C1Cc2cc(OCc3ccc(F)cc3)ccc2N1", "UniProt:P27338", "%", 19.6),
    ("Cn1c(=O)[nH]c2cc(OCc3cccc(Cl)c3)ccc21", "UniProt:P27338", "%", 23.4),
    ("CCn1c(=O)[nH]c2ccc(OCCOc3ccc(OC)cc3)cc21", "UniProt:P27338", "%", 13.9),
    ("Cn1c(=O)[nH]c2ccc(OCc3cccc(Cl)c3)cc21", "UniProt:P27338", "%", 8.89),
]

Form: molecule = CC(C)c1ccc(OCCOc2ccc3[nH]c(=O)n(C(C)C)c3c2)cc1 ; inhibition at 1 µM = 14.1

inhibition at 1 µM measured on Cn1c(=O)[nH]c2ccc(OCCc3ccc(Cl)cc3)cc21 = 19.9

So, COc1ccc(OCCOc2ccc3[nH]c(=O)n(C(C)C)c3c2)cc1 ? Its inhibition at 1 µM was 15.5

The recorded inhibition at 1 µM for entry CCn1c(=O)[nH]c2ccc(OCCCOc3ccccc3)cc21 equals 11.3

// inhibition at 1 µM lookup, molecule = Cn1c(=O)[nH]c2ccc(OCCc3cccc(Cl)c3)cc21 , result: 13.7

So for CC(C)n1c(=O)[nH]c2ccc(OCCOc3ccc(Cl)cc3)cc21 , the logged inhibition at 1 µM turned out to be 18.2
